# Tested on: NOMO1
# ASSAY: cell viability relative to DMSO control; higher = less cytotoxic
# ASSAY_CONDITIONS: RPMI 5 mM glucose + 10% FBS; 48 h; 46.1 µM
Listing: cell viability of selected compounds

COMPOUND	cell viability (%)
C[C@]12CCC(=O)C=C1CC[C@@H]1[C@@H]2CC[C@@]2(C)[C@H]1CC[C@]2(C)O	83.4
Nc1nc(N)c2nc(CNc3ccc(C(=O)NC(CCC(=O)O)C(=O)O)cc3)cnc2n1 (stereo not given)	117
COc1ncc(-c2ccc3nccc(-c4ccnnc4)c3c2)cc1N[S+](=O)([O-])c1ccc(F)cc1F	21
CC(C)C1=C(O)C=C(O)C(=C1)C/2=N/NC(=O)N2C3=CC4=C(C=C3)[N](C)C=C4	13.3
C=C[C@H]1CN2CC[C@H]1C[C@H]2[C@H](O)c1ccnc2ccc(OC)cc12	76.4
COc1cc2ncnc(Nc3cc(Br)c(O)c(Br)c3)c2cc1OC	106
COc1cc(OC)c(/C=C/[S+](=O)([O-])Cc2ccc(OC)c(NCC(=O)[O][Na])c2)c(OC)c1	24.9
CNc1nccc(-c2cccnc2Oc2cc(C(=O)Nc3cccc(C(F)(F)F)c3)ccc2C)n1	98.2
COc1cc2c(cc1OC)CC(=O)N(CCCN(C)C[C@H]1Cc3cc(OC)c(OC)cc31)CC2.Cl	95.3
C[C@@H]1[C@H](O)[C@@H](C)/C=C/C=C/C=C/C=C/C=C/C=C/C=C/[C@H](O[C@@H]2O[C@H](C)[C@@H](O)[C@H](N)[C@@H]2O)C[C@@H]2O[C@](O)(C[C@@H](O)C[C@@H](O)[C@H](O)CC[C@@H](O)C[C@@H](O)CC(=O)O[C@H]1C)C[C@H](O)[C@H]2C(=O)O	135
O=C(c1ccc(Nc2nccc(-c3cc4ccccc4s3)n2)cc1)N1CCC(N2CCCC2)CC1	2.67
CCn1c(-c2nonc2N)nc2cnc(Oc3cccc(NC(=O)c4ccc(OCCN5CCOCC5)cc4)c3)cc21	64
OC1CCC(Nc2ncc3nc(Nc4c(F)cc(F)cc4F)n([C@@H]4CCOC4)c3n2)CC1 (stereo not given in full)	121
C[C@@]12C[C@@]3(O)O[C@@H](O1)[C@]1(COC(=O)c4ccccc4)[C@H]3C[C@@]12O[C@@H]1O[C@H](CO)[C@@H](O)[C@H](O)[C@H]1O	112
O=C(Nc1ccc(F)c(C(F)(F)F)c1)Nc1nnc(-c2ccncc2)s1	101
